- Assay system: T1, extracellular domain of mouse IL23R (mIL23R ECD) (mouse, UniProt Q8K4B4 24-374)
- T1 construct: The immunogen was an ECD-human IgG1 hinge-Fc fusion
- T1 sequence: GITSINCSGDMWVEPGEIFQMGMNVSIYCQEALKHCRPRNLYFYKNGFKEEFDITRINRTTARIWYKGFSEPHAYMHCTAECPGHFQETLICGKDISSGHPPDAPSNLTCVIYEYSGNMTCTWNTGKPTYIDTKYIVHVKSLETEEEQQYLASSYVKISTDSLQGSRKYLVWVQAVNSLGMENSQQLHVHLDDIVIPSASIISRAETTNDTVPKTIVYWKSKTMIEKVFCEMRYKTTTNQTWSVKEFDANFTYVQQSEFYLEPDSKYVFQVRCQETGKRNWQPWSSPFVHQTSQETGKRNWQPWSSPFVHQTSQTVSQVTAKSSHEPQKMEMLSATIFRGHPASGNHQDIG
- Assay explanation: periplasmic extract ELISA (PE-ELISA) of phage clones, colorimetric
Reported endpoint: binding result

binder="mIL23R VHH18 (VHH, Phagemid clone with his-tag, periplasmic extract) VHH: QVQLQESGGGLVQPGGSLRLSCAASGFTFRLTAMRWVRQAPGKGLEWVSGIDSRGSTIYADSVKGRFTISKDNAKNTLYLQLNSLKTEDTAMYYCAQGVYGDTYSGSQGTQVTVSS" test_result=binds
binder="mIL23R VHH16 (VHH, Phagemid clone with his-tag, periplasmic extract) VHH: QVQLQESGGGSVQAGGSLRLSCAASGDTYSSCTMGWYRQAPGKERDLVSMLMGDGSTFYADSVKGRFTFSQENAKNTVYLQMNNLKPEDTAMYYCGCATLGSRTIWGQGTQVTVSS" test_result=binds
binder="mIL23R VHH3 (VHH, Phagemid clone with his-tag, periplasmic extract) VHH: QVQLQESGGGSVQAGGSLRLSCTASVNTYCEYNMSWYRQAPGKEREFVSGVDSDGSTRYSESVKGRFTISQDNAKNTMYLQMNGLKPEDTAMYYCKTYVCTFCSGNSCYYEYKYYYEGQGTQVTVSS" test_result=binds
binder="mIL23R VHH24 (VHH, Phagemid clone with his-tag, periplasmic extract) VHH: QVQLQESGGGSVQAGGSLRLSCAVSGYTFCMAWFRQAPGKEREGVARFYTRDGYTYYSGSVKGRFTISQNNAKNTLYLQMNSLKSEDTAMYYCAADLTRCSSNKNDFRYWGQGTQVTVSS" test_result=binds
binder="mIL23R VHH28 (VHH, Phagemid clone with his-tag, periplasmic extract) VHH: QVQLQESGGGLVQPGGSLRLSCAASGFTFRLTAMRWVRQAPGKGLEWVSGIDSRGSTIYADSVKGRFTISRDNAKNTLYLQLNSLKTEDAAMYYCAQGVYGDTYSGSQGTQVTVSS" test_result=binds
binder="mIL23R VHH11 (VHH, Phagemid clone with his-tag, periplasmic extract) VHH: QVQLQESGGGSVQAGGSLRLSCAASGYTYSSCTMGWYRQAPGKERELVSMLISDGSTFYADSVKGRFTFSQENAKSTVYLQMNSLKPEDTAMYYCGCATLGSRTVWGQGTQVTVSS" test_result=binds
binder="mIL23R VHH19 (VHH, Phagemid clone with his-tag, periplasmic extract) VHH: QVQLQESGGGLVQPGGSLRLSCAASGFTFRLSAMRWVRQAPGKGLEWVSGIDSRGSTIYADSVKGRFTISKDNAKNTLYLQLNSLKTEDTAMYYCAQGVYGDTYSGSQGTQVTVSS" test_result=binds
binder="mIL23R VHH44 (VHH, Phagemid clone with his-tag, periplasmic extract) VHH: QVQLQESGGGLVQPGGSLRLSCAASGFTFRLSAMRWVRQAPGKGFEWVSGIDSRGSTIYADSVKGRFTISKDNAKNTLYLQLNSLKTEDTAMYYCAQGVYGDTYSGSQGTQVTVSS" test_result=binds

Data credit: patent US20230279126A1
